target: human Edg-1(S1P1) (Homo sapiens); construct: expressed in transfected cells; host or cells: HEK-293; assay: Membrane system binding test: inhibition of [33P]-S1P binding to the membrane fraction of Edg-1(S1P1) gene transferred HEK-293 cells; conditions: 10 μM compound; [33P]-S1P 0.1 nM; membrane fraction of Edg-1(S1P1) gene transferred HEK-293 cells; read-out: Membrane system binding test % inhibition (10 μM)
MEASURE: inhibition at 10 µM (%)

CCn1c(SC2CCCC2)nnc1[C@@H](C)NS(=O)(=O)c1ccc(Cl)cc1 [Compound 9] | 86.7
CCn1c(SC(c2ccccc2)c2ccccc2)nnc1[C@@H](C)NS(=O)(=O)c1ccc(Cl)cc1 [Compound 40] | 46.1
C=CCSc1nnc([C@@H](CC)NS(=O)(=O)c2ccc(Cl)cc2)n1C(C)C [Compound 117] | 83.8
CCn1c(OC)nnc1[C@@H](C)NS(=O)(=O)c1ccc(C)cc1 [Compound 243] | 66
CCCCc1ccc(S(=O)(=O)N[C@H](C)c2nnc(OC)n2CC)cc1 [Compound 207] | 43.5
C=CCSc1nnc([C@@H](C)NS(=O)(=O)c2ccc(Cl)cc2)n1CC [Compound 3] | 89.1
CCn1c(OC)nnc1[C@@H](C)NS(=O)(=O)c1ccc2c(c1)CCO2 [Compound 337] | 61.3
CCn1c(OC)nnc1[C@@H](C)NS(=O)(=O)c1ccc(C)c(F)c1 [Compound 315] | 85

[a] CCn1c(OC)nnc1[C@@H](C)NS(=O)(=O)Cc1cc(Cl)cc(Cl)c1 [Compound 292]
[b] CCOc1nnc([C@@H](C)NS(=O)(=O)c2cccc(OC(F)(F)F)c2)n1CC [Compound 415]
Data request: Which record would sort first by descending inhibition at 10 µM, a or b ? Refer to your chosen entry by its label in the reply.
Data returned: b

[a] CCn1c(OC)nnc1[C@@H](C)NS(=O)(=O)c1cccc(C#N)c1 [Compound 213]
[b] CCn1c(OC)nnc1[C@@H](C)NS(=O)(=O)c1cc(Br)c(Cl)s1 [Compound 252]
[c] CCn1c(OC)nnc1[C@@H](C)NS(=O)(=O)c1cccc2cnccc12 [Compound 365]
Data request: Let's sort these by inhibition at 10 µM, smallest first. Go ahead? Reply with the item labels sorted in the order that was asked for.
Data returned: c, a, b
(c: 41.8%, a: 66.1%, b: 100%)

* * *

target: human Edg-1(S1P1) (Homo sapiens, UniProt P21453); construct: expressed in transfected cells; host or cells: HEK-293; experiment: Cell system binding test: inhibition of [3H]-S1P binding to Edg-1(S1P1) gene transferred HEK-293 cells; conditions: 10 μM compound, [3H]-S1P 10 nM, read-out: Cell system binding test % inhibition (10 μM)
Sequence (P21453 whole entry): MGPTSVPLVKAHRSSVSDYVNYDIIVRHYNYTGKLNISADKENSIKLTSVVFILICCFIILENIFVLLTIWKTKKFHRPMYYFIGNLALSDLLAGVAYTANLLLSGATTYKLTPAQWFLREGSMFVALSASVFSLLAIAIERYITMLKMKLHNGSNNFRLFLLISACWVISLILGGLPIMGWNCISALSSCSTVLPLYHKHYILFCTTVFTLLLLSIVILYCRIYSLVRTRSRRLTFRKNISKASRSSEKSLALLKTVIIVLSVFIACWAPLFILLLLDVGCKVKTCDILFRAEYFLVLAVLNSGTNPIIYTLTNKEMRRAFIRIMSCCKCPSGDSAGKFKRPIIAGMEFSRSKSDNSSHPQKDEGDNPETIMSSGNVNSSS
MEASURE: inhibition at 10 µM (%)

CCn1c(OCCCN2CCOCC2)nnc1[C@@H](C)NS(=O)(=O)c1ccc(Cl)cc1 | 82.9
CCn1c(OC)nnc1[C@@H](C)NS(=O)(=O)c1cc(F)c(F)c(F)c1 | 100
CCn1c(OC)nnc1[C@@H](C)NS(=O)(=O)c1ccc(-c2ccccc2)cc1 | 94.5
CCOc1nnc([C@@H](C)NS(=O)(=O)c2ccc(F)c(F)c2)n1CC | 86.1
CCCS(=O)(=O)N[C@H](C)c1nnc(OC)n1CC | 92.7
CCn1c(OC)nnc1[C@@H](C)NS(=O)(=O)c1ccc(C)cc1 | 102
CCn1c(OC)nnc1[C@@H](C)NS(=O)(=O)c1cc(F)c(Br)cc1F | 94.8
CCOc1nnc([C@@H](C)NS(=O)(=O)c2ccc(C)c(C)c2)n1CC | 96.4
C=CCSc1nnc([C@@H](Cc2ccccc2)NS(=O)(=O)c2ccc(Cl)cc2)n1CCC | 94.8
CCn1c(OCCCN(C)C)nnc1[C@@H](C)NS(=O)(=O)c1ccc(Cl)cc1 | 82
CCn1c(SCc2ccc(C(F)(F)F)cc2)nnc1C(C)NS(=O)(=O)c1ccc(Cl)cc1 (centres unmarked) | 90.4

* * *

biological target: human Edg-1(S1P1) (Homo sapiens); construct: expressed in transfected cells; host or cells: HEK-293; experiment: Cell system binding test: inhibition of [3H]-S1P binding to Edg-1(S1P1) gene transferred HEK-293 cells; settings: 10 μM compound, [3H]-S1P 10 nM, read-out: Cell system binding test % inhibition (10 μM)
MEASURE: inhibition at 10 µM (%)

CCn1c(OC)nnc1[C@@H](C)NS(=O)(=O)c1ccc(Cl)c(Cl)c1 | 102
C=C(C)CSc1nnc(C(Cc2ccccc2)NS(=O)(=O)c2ccc(Cl)cc2)n1C (stereo not drawn) | 103
CCn1c(SCC2CCCCC2)nnc1[C@@H](C)NS(=O)(=O)c1ccc(Cl)cc1 | 81.5
CCOc1nnc([C@@H](C)NS(=O)(=O)c2ccc(F)c(Cl)c2)n1CC | 94.7
CCn1c(OC)nnc1[C@@H](C)NS(=O)(=O)c1ccccc1Cl | 85.6
CCOc1nnc([C@@H](C)NS(=O)(=O)c2cc(Cl)c(Cl)s2)n1CC | 95.6

* * *

target: human Edg-1(S1P1) (Homo sapiens, UniProt P21453); construct: expressed in transfected cells; host or cells: HEK-293; assay: Cell system binding test: inhibition of [3H]-S1P binding to Edg-1(S1P1) gene transferred HEK-293 cells; settings: 10 μM compound, [3H]-S1P 10 nM, read-out: Cell system binding test % inhibition (10 μM)
MEASURE: inhibition at 10 µM (%)

CCn1c(SCCCN(C)C)nnc1[C@@H](C)NS(=O)(=O)c1ccc(Cl)cc1 [Compound 67] | 73.8
CCn1c(OC)nnc1[C@@H](C)NS(=O)(=O)c1ccc(F)c(Cl)c1 [Compound 268] | 98.7
CCn1c(SCCc2c[nH]c3ccccc23)nnc1[C@@H](C)NS(=O)(=O)c1ccc(Cl)cc1 [Compound 85] | 90.4
CCn1c(OC)nnc1[C@@H](C)NS(=O)(=O)c1cc(Br)cc(C(F)(F)F)c1 [Compound 371] | 102
CCn1c(OC)nnc1[C@@H](C)NS(=O)(=O)c1cc(Br)c(Cl)s1 [Compound 252] | 103

* * *

molecular target: human Edg-1(S1P1) (Homo sapiens, UniProt P21453); construct: expressed in transfected cells; host or cells: HEK-293; test: Cell system binding test: inhibition of [3H]-S1P binding to Edg-1(S1P1) gene transferred HEK-293 cells; conditions: 10 μM compound, [3H]-S1P 10 nM, read-out: Cell system binding test % inhibition (10 μM)
MEASURE: inhibition at 10 µM (%)

CCn1c(OC)nnc1[C@@H](C)NS(=O)(=O)c1nc(C)cs1 [Compound 423] | 59.2
CCn1c(SCc2cccc(C)c2)nnc1[C@@H](C)NS(=O)(=O)c1ccc(Cl)cc1 [Compound 22] | 82.1
C=CCSc1nnc([C@@H](Cc2ccccc2)NS(=O)(=O)c2ccc(Cl)cc2)n1C [Compound 134] | 88.8

[a] CCn1c(SCCNC(=O)c2ccncc2)nnc1[C@@H](C)NS(=O)(=O)c1ccc(Cl)cc1 [Compound 74]
[b] CCn1c(OC)nnc1[C@@H](C)NS(=O)(=O)c1ccccc1OC [Compound 332]
Data request: Pick one: a or b . Which one has the lower reported inhibition at 10 µM? Refer to your chosen entry by its label in the reply.
Data returned: b
(b: 35.5%, a: 93.6%)

* * *

biological target: human Edg-1(S1P1) (Homo sapiens); construct: expressed in transfected cells; host or cells: HEK-293; assay: Membrane system binding test: inhibition of [33P]-S1P binding to the membrane fraction of Edg-1(S1P1) gene transferred HEK-293 cells; settings: 10 μM compound; [33P]-S1P 0.1 nM; membrane fraction of Edg-1(S1P1) gene transferred HEK-293 cells; read-out: Membrane system binding test % inhibition (10 μM)
MEASURE: inhibition at 10 µM (%)

Examples from the recorded data:
CCn1c(OC)nnc1[C@@H](C)NS(=O)(=O)c1ccc(Br)cc1Br | 62.8
CCn1c(OC)nnc1[C@@H](C)NS(=O)(=O)c1cnc(Cl)c(Br)c1 | 106
CCn1c(SCc2ccccc2Cl)nnc1[C@@H](C)NS(=O)(=O)c1ccc(Cl)cc1 | 98.8

[1] CCn1c(OC)nnc1[C@@H](C)NS(=O)(=O)c1ccc(Br)c(C)c1
[2] CCn1c(OC)nnc1[C@@H](C)NS(=O)(=O)c1cc(C)ccc1F
Data request: Pick one: 1 or 2 . Which one has the lower reported inhibition at 10 µM? Refer to your chosen entry by its label in the reply.
Data returned: 2

[I] CCOc1nnc([C@@H](C)NS(=O)(=O)c2ccc(F)c(C(F)(F)F)c2)n1CC
[II] CCn1c(SCCSC)nnc1[C@@H](C)NS(=O)(=O)c1ccc(Cl)cc1
Data request: Pick one: I or II . Which one has the lower reported inhibition at 10 µM? Refer to your chosen entry by its label in the reply.
Data returned: II
(II: 61.1%, I: 90.9%)
